Would you kindly list inhibition at 10 µM for each of these molecules?
target: CYP2D6 (Homo sapiens); assay: Inhibition of human recombinant CYP2D6 at 10 uM relative to control; assay type: ADME
Sequence (P10635 whole entry): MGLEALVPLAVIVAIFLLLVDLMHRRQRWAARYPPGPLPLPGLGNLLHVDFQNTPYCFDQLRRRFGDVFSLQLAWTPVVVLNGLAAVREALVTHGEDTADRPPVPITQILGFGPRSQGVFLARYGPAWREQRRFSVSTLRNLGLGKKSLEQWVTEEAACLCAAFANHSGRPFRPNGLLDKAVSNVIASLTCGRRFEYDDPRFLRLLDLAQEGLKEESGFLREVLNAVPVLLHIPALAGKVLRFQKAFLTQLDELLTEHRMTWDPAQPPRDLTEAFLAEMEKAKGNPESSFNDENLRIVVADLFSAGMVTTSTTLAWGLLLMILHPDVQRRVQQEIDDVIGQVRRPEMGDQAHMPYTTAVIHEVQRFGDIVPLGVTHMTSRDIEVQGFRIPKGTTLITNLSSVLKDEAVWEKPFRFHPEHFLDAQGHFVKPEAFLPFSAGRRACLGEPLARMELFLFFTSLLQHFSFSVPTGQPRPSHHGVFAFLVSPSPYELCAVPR
Numbers only, in %.

Field: example entries. Status: answers known.
COC(=O)CCCNC(=O)c1ccc2c(c1)C(=O)c1ccc(Nc3ccc(F)cc3F)cc1CC2    3
COC(=O)CCNC(=O)c1ccc2c(c1)C(=O)c1ccc(Nc3ccc(F)cc3F)cc1CC2    73.7
O=C(O)CCNC(=O)c1ccc2c(c1)C(=O)c1ccc(Nc3ccc(F)cc3F)cc1CC2    3

Dear colleague, could you please provide inhibition at 10 µM for the molecules listed below?
1. Nc1ccccc1Nc1ccc2c(c1)CCc1ccc(C(=O)NCCC(=O)O)cc1C2=O
2. O=C(O)CCCNC(=O)c1ccc2c(c1)C(=O)c1ccc(Nc3ccc(F)cc3F)cc1CC2
3. O=C(NCCN1CC2(COC2)C1)c1ccc2c(c1)C(=O)c1ccc(Nc3ccc(F)cc3F)cc1CC2

(A)
1: 11.4; 2: 2; 3: 18.3
